Test system: NB4
PROTOCOL SUMMARY: cells
CONDITION PARAMETERS: NB4 leukemia cells, MTT, 48 or 72 hr
Assignment: determine reported TGI for the given molecules.
Respond with the bare value in nM.

O=C(C=Cc1ccc2c(c1)CCN2S(=O)(=O)c1ccccc1)NO [Compound 12] on NB4 gives TGI = 61.2

So the reported TGI for Nc1ccn([C@@H]2O[C@H](CO)[C@@H](O)[C@@H]2O)c(=O)n1 [Ara-C, reference compound] , on NB4, turned out to be 2324.0

TGI of O=C(CCCCCCC(=O)Nc1ccccc1)NO [SAHA, reference compound] , assay on NB4, is 615.8

Entry O=C(C=Cc1ccc2c(ccn2S(=O)(=O)c2ccccc2)c1)NO [Compound 3] , tested on NB4, has a reported TGI of 500.9
